- test.system: Tyrosine-protein kinase JAK2 (Homo sapiens, UniProt O60674)
- Sequence (O60674 whole entry): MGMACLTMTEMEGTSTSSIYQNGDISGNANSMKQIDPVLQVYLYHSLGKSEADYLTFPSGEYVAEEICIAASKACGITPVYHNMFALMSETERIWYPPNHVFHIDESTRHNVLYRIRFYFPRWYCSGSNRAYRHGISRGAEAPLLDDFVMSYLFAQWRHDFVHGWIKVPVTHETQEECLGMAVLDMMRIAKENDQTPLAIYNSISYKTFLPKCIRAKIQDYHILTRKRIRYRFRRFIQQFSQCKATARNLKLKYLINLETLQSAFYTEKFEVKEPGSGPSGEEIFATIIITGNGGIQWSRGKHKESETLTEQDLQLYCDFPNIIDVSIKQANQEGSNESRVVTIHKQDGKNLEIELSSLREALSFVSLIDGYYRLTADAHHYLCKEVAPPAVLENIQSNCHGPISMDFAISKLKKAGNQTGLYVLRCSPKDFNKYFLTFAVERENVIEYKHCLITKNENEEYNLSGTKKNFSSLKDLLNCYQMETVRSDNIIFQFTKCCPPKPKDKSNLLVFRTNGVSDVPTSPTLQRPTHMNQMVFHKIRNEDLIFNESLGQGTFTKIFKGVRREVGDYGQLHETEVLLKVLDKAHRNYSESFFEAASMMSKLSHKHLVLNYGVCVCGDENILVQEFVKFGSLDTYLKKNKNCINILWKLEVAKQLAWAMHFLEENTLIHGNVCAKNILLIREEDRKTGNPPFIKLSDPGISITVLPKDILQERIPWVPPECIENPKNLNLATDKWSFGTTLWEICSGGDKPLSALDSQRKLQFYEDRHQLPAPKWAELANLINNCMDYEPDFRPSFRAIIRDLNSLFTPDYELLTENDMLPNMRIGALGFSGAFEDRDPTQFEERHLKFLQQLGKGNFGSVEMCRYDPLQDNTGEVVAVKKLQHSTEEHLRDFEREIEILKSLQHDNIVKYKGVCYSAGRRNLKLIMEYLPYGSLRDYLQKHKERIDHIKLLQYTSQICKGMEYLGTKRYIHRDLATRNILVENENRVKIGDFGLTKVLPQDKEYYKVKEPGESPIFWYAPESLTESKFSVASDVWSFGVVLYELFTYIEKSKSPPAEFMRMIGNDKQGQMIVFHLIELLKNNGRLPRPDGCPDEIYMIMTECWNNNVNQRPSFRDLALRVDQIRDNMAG
- protocol.description: Inhibition of recombinant JAK2 using Poly (Glu,Ala,Tyr) as substrate after 2 hrs by luminescence assay
Hi there, I'd appreciate the recorded pIC50 for every entry that follows.
When answering, recall that pIC50 equals minus log10 of the concentration in mol/L, and write that number alone.

Entry C1=CCOc2cccc(c2)Nc2nccc(n2)-c2cccc(c2)OCC1 (mixture of isomers) , pIC50 reported as 6.64

Entry CCN(CC)CCC(=O)Nc1cc2cc(c1)Nc1nccc(n1)-c1cccc(c1)COCC=CCOC2 (mixture of isomers) , pIC50 reported as 7.36

Entry Nc1cc2cc(c1)Nc1nccc(n1)-c1cccc(c1)COCC=CCOC2 (mixture of isomers) , pIC50 reported as 7.46

Entry C1=CCOCc2cccc(c2)-c2ccnc(n2)Nc2cc(cc(OCCN3CCOCC3)c2)COC1 (mixture of isomers) , pIC50 reported as 7.02

Entry Cc1cnc2nc1-c1cccc(c1)COCC=CCOCc1cc(ccc1OCCN1CCCC1)N2 , pIC50 reported as 8.15

----------
- test.system: Cytochrome P450 2C9 (Homo sapiens)
- Sequence (P11712 whole entry): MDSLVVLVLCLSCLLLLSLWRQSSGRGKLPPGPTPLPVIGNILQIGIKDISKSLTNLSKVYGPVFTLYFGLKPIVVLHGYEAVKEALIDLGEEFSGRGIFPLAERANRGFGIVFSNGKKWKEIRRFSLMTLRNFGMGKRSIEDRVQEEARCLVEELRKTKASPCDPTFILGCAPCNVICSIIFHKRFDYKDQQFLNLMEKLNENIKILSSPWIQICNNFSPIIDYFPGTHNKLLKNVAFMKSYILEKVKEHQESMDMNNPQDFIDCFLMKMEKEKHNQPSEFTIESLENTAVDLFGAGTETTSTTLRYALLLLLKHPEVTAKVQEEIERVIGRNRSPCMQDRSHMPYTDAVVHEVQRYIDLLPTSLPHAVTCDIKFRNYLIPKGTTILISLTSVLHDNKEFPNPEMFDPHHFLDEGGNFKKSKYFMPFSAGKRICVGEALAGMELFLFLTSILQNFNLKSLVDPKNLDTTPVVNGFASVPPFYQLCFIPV
pIC50: −log10 of the molar value.
assay.metric: pIC50

Entry C1=N/C2=N/c3ccc(OCCN4CCCC4)c(c3)COC/C=C/COCc3cccc(c3)C(=C1)N2 (mixture of isomers) [PACRITINIB] , pIC50 reported as < 5.30

----------
- protocol.description: Plasma protein binding in mouse at 1000 ng/ml by LC/MS/MS analysis
- Format: ADME, cell-free
- experimental.context: read-out: PPB (converted)
assay.metric: fraction unbound at 1000 ng/ml
Write no unit; give the number alone.

Entry C1=N/C2=N/c3ccc(OCCN4CCCC4)c(c3)COC/C=C/COCc3cccc(c3)C(=C1)N2 (mixture of isomers) [PACRITINIB] , fraction unbound at 1000 ng/ml reported as 0.0059

----------
- protocol.description: Plasma protein binding in dog at 1000 ng/ml by LC/MS/MS analysis
- Type: ADME, cell-free, Canis lupus familiaris
- experimental.context: read-out: PPB (converted)
assay.metric: fraction unbound at 1000 ng/ml
Write no unit; give the number alone.

Entry C1=N/C2=N/c3ccc(OCCN4CCCC4)c(c3)COC/C=C/COCc3cccc(c3)C(=C1)N2 (mixture of isomers) , fraction unbound at 1000 ng/ml reported as 0.0037

----------
- protocol.description: Oral bioavailability in Wistar rat at 10 mg/kg, administered as single dose
- Assay type: ADME, organism-based
- experimental.context: in vivo
assay.metric: bioavailability (%)
Answer format: numeric, % implied, no suffix.

Entry C1=N/C2=N/c3ccc(OCCN4CCCC4)c(c3)COC/C=C/COCc3cccc(c3)C(=C1)N2 (mixture of isomers) [PACRITINIB] , bioavailability reported as 10

----------
- test.system: Cyclin-dependent kinase 2/cyclin A (Homo sapiens, UniProt P24941)
- protocol.description: Inhibition of recombinant CDK2/Cyclin A using RbinG as substrate after 2 hrs by luminescence assay
pIC50: −log10 of the molar value.
Think of 6 as a floor: if pIC50 stands on it or above, it is y; beneath it, n.

Form field: pIC50 at least 6? Entry: C1=CCOCc2cc(ccc2OCCN2CCCCC2)Nc2nccc(n2)-c2cccc(c2)COC1 (mixture of isomers)
n

Form field: pIC50 at least 6? Entry: C1=CCOCc2cccc(c2)-c2ccnc(n2)Nc2cc(cc(OCCN3CCCC3)c2)COC1 (mixture of isomers)
y

Form field: pIC50 at least 6? Entry: COc1cc2cc(c1OCCN1CCCC1)COCC=CCOCc1cccc(c1)-c1ccnc(n1)N2 (mixture of isomers)
n

Form field: pIC50 at least 6? Entry: ClCCOc1ccc2cc1COCC=CCOCc1cccc(c1)-c1ccnc(n1)N2 (mixture of isomers)
n

Form field: pIC50 at least 6? Entry: OCCN1CCN(c2ccc3cc2COCC=CCOCc2cccc(c2)-c2ccnc(n2)N3)CC1
n

Form field: pIC50 at least 6? Entry: CCS(=O)(=O)N1CCN(c2ccc3cc2COCC=CCOCc2cccc(c2)-c2ccnc(n2)N3)CC1 (mixture of isomers)
n

Form field: pIC50 at least 6? Entry: C1=N/C2=N/c3ccc(OCCN4CCCC4)c(c3)COC/C=C/COCc3cccc(c3)C(=C1)N2 (mixture of isomers) [PACRITINIB]
n

Form field: pIC50 at least 6? Entry: C1=CCCOc2cccc(c2)-c2ccnc(n2)Nc2cccc(c2)OCC1
n

Form field: pIC50 at least 6? Entry: C1=CCOc2cccc(c2)Nc2nccc(n2)-c2cccc(c2)OCC1 (mixture of isomers)
y

Form field: pIC50 at least 6? Entry: Fc1cnc2nc1-c1cccc(c1)COCC=CCOCc1cc(ccc1OCCN1CCCC1)N2 (mixture of isomers)
n

Form field: pIC50 at least 6? Entry: COc1ccc2cc1-c1ccnc(n1)Nc1ccc(OCCN3CCCC3)c(c1)COCC=CCOC2
n

Form field: pIC50 at least 6? Entry: COc1ccc2cc1COCC=CCOc1cccc(c1)-c1ccnc(n1)N2 (mixture of isomers)
y

Form field: pIC50 at least 6? Entry: CCN(CC)CCOc1ccc2cc1COCC=CCOCc1cccc(c1)-c1ccnc(n1)N2 (mixture of isomers)
n

Form field: pIC50 at least 6? Entry: Nc1cc2cc(c1)Nc1nccc(n1)-c1cccc(c1)COCC=CCOC2 (mixture of isomers)
y

Form field: pIC50 at least 6? Entry: CCN(CC)CCC(=O)Nc1cc2cc(c1)Nc1nccc(n1)-c1cccc(c1)COCC=CCOC2 (mixture of isomers)
y

Recorded values, source ChEMBL document CHEMBL2176955.
